Tested on: Mycobacterium tuberculosis
ASSAY_NAME: Cornell M. t heat shock assay; note: in the data most compounds retested in dose-response had high values
Type: functional, organism-based
Design: dose or concentration left out as unconfirmed
In all, about 69,000 compounds went through this assay and about 950 (1.4%) showed an effect of 50% or more. For the sample, strong results were picked, then their nearest neighbours and some compounds at random.
MEASUREMENT_KIND: Percent Effect

{"COMPOUND": "O=C(O)C(F)(F)F.O=C1COC2(CCN(C(=O)c3ccco3)CC2)CN1Cc1cccnc1", "MEASUREMENT_KIND": "Percent Effect", "EXPERIMENTAL_RESULT": "-2.228%"}
{"COMPOUND": "COc1ccc(NC(=O)N(CCO)Cc2ccsc2)c(OC)c1", "MEASUREMENT_KIND": "Percent Effect", "EXPERIMENTAL_RESULT": "-10.14%"}
{"COMPOUND": "CNC(=O)[C@H]1C[C@@H]2CN(C(=O)Nc3ccccc3)C[C@H]1O2", "MEASUREMENT_KIND": "Percent Effect", "EXPERIMENTAL_RESULT": "-29.03%"}
{"COMPOUND": "COc1ccncc1NCc1ccsc1", "MEASUREMENT_KIND": "Percent Effect", "EXPERIMENTAL_RESULT": "-12.4%"}
{"COMPOUND": "COc1cccc(CN2CCCC2c2cncc(Nc3nncs3)n2)c1 (stereo not drawn)", "MEASUREMENT_KIND": "Percent Effect", "EXPERIMENTAL_RESULT": "104.6%"}
{"COMPOUND": "COCCOc1ccc(NC(=O)C2CC(=O)N(C)C2)cn1 (stereo not drawn)", "MEASUREMENT_KIND": "Percent Effect", "EXPERIMENTAL_RESULT": "4.167%"}
{"COMPOUND": "CNc1cncc(C2CCCN2Cc2ccccn2)n1 (stereo not drawn)", "MEASUREMENT_KIND": "Percent Effect", "EXPERIMENTAL_RESULT": "-4.503%"}
{"COMPOUND": "COc1ccc(CNc2c(C)nn(C(C)C)c2C)cc1OC.Cl", "MEASUREMENT_KIND": "Percent Effect", "EXPERIMENTAL_RESULT": "12.96%"}
{"COMPOUND": "COc1cccc(OC)c1CNC(Cc1ccsc1)c1ccc(C)cn1 (stereo not drawn)", "MEASUREMENT_KIND": "Percent Effect", "EXPERIMENTAL_RESULT": "103.5%"}
{"COMPOUND": "CC1c2ncc(Cn3cccn3)n2CCN1c1ncccn1.O=C(O)C(F)(F)F (stereo not drawn)", "MEASUREMENT_KIND": "Percent Effect", "EXPERIMENTAL_RESULT": "40.47%"}
{"COMPOUND": "COCCNS(=O)(=O)c1ccc2c(c1)CCN(C(=O)c1cncn1C)C2", "MEASUREMENT_KIND": "Percent Effect", "EXPERIMENTAL_RESULT": "91.56%"}
{"COMPOUND": "CCn1ccc2ccnc(CC3CN(C(=O)Cn4ccnc4C)C3)c21.O=CO", "MEASUREMENT_KIND": "Percent Effect", "EXPERIMENTAL_RESULT": "-10.71%"}
{"COMPOUND": "Cc1ccc(C(=O)N2CCN3C[C@H](Oc4cccnc4)C[C@H]3C2)cn1.O=C(O)C(F)(F)F.O=C(O)C(F)(F)F.O=C(O)C(F)(F)F", "MEASUREMENT_KIND": "Percent Effect", "EXPERIMENTAL_RESULT": "-27.6%"}
{"COMPOUND": "CC(C)c1nc(CNC2CCCN(c3cccnn3)C2)no1 (stereo not drawn)", "MEASUREMENT_KIND": "Percent Effect", "EXPERIMENTAL_RESULT": "-11.29%"}
{"COMPOUND": "CN1CCOCC2(CCCN(C(=O)c3cnccn3)C2)C1.O=C(O)C(F)(F)F (stereo not drawn)", "MEASUREMENT_KIND": "Percent Effect", "EXPERIMENTAL_RESULT": "-11.83%"}
{"COMPOUND": "COCC1c2nnn(CC3CC3)c2CCN1C(=O)c1cc(C)[nH]c1C (stereo not drawn)", "MEASUREMENT_KIND": "Percent Effect", "EXPERIMENTAL_RESULT": "70.57%"}
{"COMPOUND": "COc1ccc(CNC(Cc2ccsc2)c2ccc(C)cn2)cc1OC.Cl (stereo not drawn)", "MEASUREMENT_KIND": "Percent Effect", "EXPERIMENTAL_RESULT": "97.07%"}
{"COMPOUND": "Cc1cccc(-c2ncc(CNC(C)Cc3ncccc3C)cn2)c1 (stereo not drawn)", "MEASUREMENT_KIND": "Percent Effect", "EXPERIMENTAL_RESULT": "1.404%"}
